testTarget: FGFR1 (UniProt P11362)
Sequence (P11362 whole entry, looked up): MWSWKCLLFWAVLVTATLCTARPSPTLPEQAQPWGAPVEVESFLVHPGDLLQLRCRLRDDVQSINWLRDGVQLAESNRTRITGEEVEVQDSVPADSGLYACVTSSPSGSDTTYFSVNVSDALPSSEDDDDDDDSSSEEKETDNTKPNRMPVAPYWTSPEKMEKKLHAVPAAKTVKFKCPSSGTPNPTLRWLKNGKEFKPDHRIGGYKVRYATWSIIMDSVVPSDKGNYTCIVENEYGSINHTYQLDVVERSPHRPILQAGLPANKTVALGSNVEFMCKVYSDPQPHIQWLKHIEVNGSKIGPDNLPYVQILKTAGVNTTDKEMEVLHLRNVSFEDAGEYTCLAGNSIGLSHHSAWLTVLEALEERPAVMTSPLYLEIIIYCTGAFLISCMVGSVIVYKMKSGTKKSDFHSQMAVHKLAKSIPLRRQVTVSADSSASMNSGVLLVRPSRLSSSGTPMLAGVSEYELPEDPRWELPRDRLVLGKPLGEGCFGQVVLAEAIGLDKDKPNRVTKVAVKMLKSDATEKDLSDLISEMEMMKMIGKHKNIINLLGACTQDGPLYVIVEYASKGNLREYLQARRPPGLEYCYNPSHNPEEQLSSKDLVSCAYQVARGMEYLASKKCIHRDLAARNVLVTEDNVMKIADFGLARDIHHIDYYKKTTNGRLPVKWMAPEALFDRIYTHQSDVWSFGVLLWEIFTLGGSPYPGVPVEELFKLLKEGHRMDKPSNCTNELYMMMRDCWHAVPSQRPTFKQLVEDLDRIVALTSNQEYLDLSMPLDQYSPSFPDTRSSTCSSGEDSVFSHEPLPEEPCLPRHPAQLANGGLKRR
protocol: phosphorylation enrichment, bacterial display (enrichment ratio); higher = better substrate or ligand; peptides without Tyr show the background;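 further: 11-residue human phosphosite peptides and single-mutation variants displayed on the E. coli surface, counted by deep sequencing, each peptide's frequency after selection divided by its frequency in the unselected input library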;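 further: frequency after pTyr selection over input frequency; kinase dosed for 20-30% of maximal phosphorylation in three min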
Please go through the items and note down their phosphorylation enrichment.
Lab note: write the figure by itself, no unit.

So, LIFVSYDDWDY [GRIN2A_Y281_S278F] ? Its phosphorylation enrichment was 0.95

So, HSGVSYFINLC [IGF2R_Y2024_N2020S_YF] ? Its phosphorylation enrichment was 0.439

So, TFEPNYGTVKQ [RAPGEF6_Y1447_YF] ? Its phosphorylation enrichment was 0.471

So, GGRIDYIAGLV [APRT_Y60_D65V] ? Its phosphorylation enrichment was 0.496

So, RCKSHYAAFSV [C1QTNF1_Y145] ? Its phosphorylation enrichment was 1.1

So, CTTLHYNYMCN [TP53_Y234_I232L] ? Its phosphorylation enrichment was 0.811

So, LAARFYNWVSF [FLT4_Y1231_YF] ? Its phosphorylation enrichment was 1.27

So, MKDLTYASLCF [ALOX5_Y446] ? Its phosphorylation enrichment was 0.901

So, LNRAGYCDALE [MTUS1_Y151_C148R] ? Its phosphorylation enrichment was 0.686

So, QAQMDYRRLQP [MPL_Y591] ? Its phosphorylation enrichment was 0.306

So, TVEDHDFEGGI [TKT_Y563_Y563D_YF] ? Its phosphorylation enrichment was 0.578

So, MEKEKYVSYIS [JMJD1C_Y596] ? Its phosphorylation enrichment was 0.401

So, GAVDTYCRHNY [HLA-DRB1_Y107_A102G] ? Its phosphorylation enrichment was 0.531

So, IFLENYNAGTF [CFI_Y421_H418L_YF] ? Its phosphorylation enrichment was 0.489

So, KRIETYFSKNY [PLP1_Y50_L46R] ? Its phosphorylation enrichment was 0.436

So, MGRVNYGAFIN [GLB1_Y485_YF] ? Its phosphorylation enrichment was 0.398

So, IVLEKYKLLPE [DHFR_Y157_D153V] ? Its phosphorylation enrichment was 0.596

So, NREGVYTVSAP [TGFBI_Y537_F540S] ? Its phosphorylation enrichment was 0.462

So, SVVVPYDPPEV [TP53_Y220_E221D] ? Its phosphorylation enrichment was 0.56

So, MSNSAYVKREV [SCN1A_Y1694_F1692S] ? Its phosphorylation enrichment was 0.45

So, SVTCTYPPALN [TP53_Y126_S127P] ? Its phosphorylation enrichment was 0.502

So, LRLSSYSTTIR [CYP7B1_Y365] ? Its phosphorylation enrichment was 0.655

So, TTKAKYKTPIF [PLD2_Y573_T577I_YF] ? Its phosphorylation enrichment was 0.481

So, VKPRRYRPGTV [H3-5_Y41_H39R] ? Its phosphorylation enrichment was 0.53

So, KIPGRYYETGS [PAX2_Y72_L69P] ? Its phosphorylation enrichment was 0.503

So, QQLQGYIPSNY [FRK_Y99] ? Its phosphorylation enrichment was 0.314

So, KSLFHYRQYSA [CPS1_Y1491] ? Its phosphorylation enrichment was 0.531

So, DDEVFYSPRSL [OTC_Y317] ? Its phosphorylation enrichment was 0.504

So, GRRNTCYASIA [ACADM_Y352_Y352C] ? Its phosphorylation enrichment was 0.333
